assayed.target: panel of more than 300 wild-type and mutant kinases (313 kinase panel) (Homo sapiens, UniProt Q9UM73, R1275Q)
Sequence (Q9UM73 19-1620 R1275Q): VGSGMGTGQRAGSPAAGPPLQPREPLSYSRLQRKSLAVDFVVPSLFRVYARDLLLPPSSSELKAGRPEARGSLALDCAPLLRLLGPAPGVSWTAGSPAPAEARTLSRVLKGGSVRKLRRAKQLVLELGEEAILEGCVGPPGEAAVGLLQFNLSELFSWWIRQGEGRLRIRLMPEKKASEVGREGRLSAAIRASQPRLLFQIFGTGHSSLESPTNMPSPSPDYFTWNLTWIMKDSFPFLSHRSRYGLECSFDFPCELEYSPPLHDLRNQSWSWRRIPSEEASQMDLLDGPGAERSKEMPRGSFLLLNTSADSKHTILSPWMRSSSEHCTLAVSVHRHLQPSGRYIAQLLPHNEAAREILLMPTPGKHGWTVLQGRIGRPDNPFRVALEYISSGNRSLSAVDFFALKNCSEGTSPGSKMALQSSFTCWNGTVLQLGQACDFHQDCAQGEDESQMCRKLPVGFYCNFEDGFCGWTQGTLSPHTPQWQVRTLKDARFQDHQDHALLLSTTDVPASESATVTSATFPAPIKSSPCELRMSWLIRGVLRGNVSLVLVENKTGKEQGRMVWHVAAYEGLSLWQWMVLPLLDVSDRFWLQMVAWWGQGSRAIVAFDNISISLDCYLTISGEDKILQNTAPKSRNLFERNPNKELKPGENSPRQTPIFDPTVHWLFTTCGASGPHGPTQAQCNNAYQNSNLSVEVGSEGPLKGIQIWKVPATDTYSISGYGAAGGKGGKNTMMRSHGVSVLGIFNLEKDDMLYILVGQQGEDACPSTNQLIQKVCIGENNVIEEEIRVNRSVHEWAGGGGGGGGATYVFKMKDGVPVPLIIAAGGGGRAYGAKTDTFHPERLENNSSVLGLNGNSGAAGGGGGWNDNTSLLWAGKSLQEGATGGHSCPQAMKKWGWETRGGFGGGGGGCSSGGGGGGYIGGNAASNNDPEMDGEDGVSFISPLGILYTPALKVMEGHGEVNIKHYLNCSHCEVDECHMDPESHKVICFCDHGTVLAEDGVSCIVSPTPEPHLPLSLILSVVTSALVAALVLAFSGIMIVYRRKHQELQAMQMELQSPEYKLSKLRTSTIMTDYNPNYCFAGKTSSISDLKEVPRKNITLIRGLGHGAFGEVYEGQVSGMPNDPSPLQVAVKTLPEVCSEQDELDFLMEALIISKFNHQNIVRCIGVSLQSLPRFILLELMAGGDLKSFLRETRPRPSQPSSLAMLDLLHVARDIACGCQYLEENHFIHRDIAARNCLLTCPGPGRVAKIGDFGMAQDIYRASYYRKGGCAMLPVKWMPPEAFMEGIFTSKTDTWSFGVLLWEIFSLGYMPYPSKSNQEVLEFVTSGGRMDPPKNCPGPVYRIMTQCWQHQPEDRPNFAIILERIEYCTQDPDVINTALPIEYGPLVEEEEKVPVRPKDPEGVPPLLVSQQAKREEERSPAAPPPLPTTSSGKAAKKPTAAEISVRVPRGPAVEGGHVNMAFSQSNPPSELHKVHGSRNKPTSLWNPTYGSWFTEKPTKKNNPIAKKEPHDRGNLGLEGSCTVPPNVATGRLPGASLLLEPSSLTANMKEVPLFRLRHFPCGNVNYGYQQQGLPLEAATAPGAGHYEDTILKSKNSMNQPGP
protocol.notes: Kinase profiling in a biochemical assay panel (mobility shift assays and ELISA), %-inhibition at 1 μM; selectivity entropy
measurement.conditions: kinase ALK(R1275Q); 1 μM compound
Think of 60% as a floor: if %-inhibition, ALK(R1275Q) stands on it or above, it is y; beneath it, n.

Example results:
molecule: CCCS(=O)(=O)Nc1ccc(F)c(C(=O)c2c[nH]c3ncc(-c4ccc(Cl)cc4)cc23)c1F [vemurafenib]
discrete.label: n

molecule: CC(=O)Nc1cccc(-n2c(=O)n(C3CC3)c(=O)c3c(Nc4ccc(I)cc4F)n(C)c(=O)c(C)c32)c1 [trametinib]
discrete.label: n

molecule: CO[C@H]1C[C@@H]2CC[C@@H](C)[C@@](O)(O2)C(=O)C(=O)N2CCCC[C@H]2C(=O)O[C@H]([C@H](C)C[C@@H]2CC[C@@H](OCCO)[C@H](OC)C2)CC(=O)[C@H](C)/C=C(\C)[C@@H](O)[C@@H](OC)C(=O)[C@H](C)C[C@H](C)/C=C/C=C/C=C/1C [everolimus]
discrete.label: n

molecule: Cc1ccc(C(=O)Nc2ccc(CN3CCN(C)CC3)c(C(F)(F)F)c2)cc1C#Cc1cnc2cccnn12 [ponatinib]
discrete.label: n

Let us examine a further case.
Identify whether the reported %-inhibition, ALK(R1275Q) of the following molecule is 60% or greater: COc1cc2nccc(Oc3ccc(NC(=O)C4(C(=O)Nc5ccc(F)cc5)CC4)cc3)c2cc1OC [cabozantinib]
y

====

Test system: forty-four human cancer cell lines
protocol.notes: Cell proliferation assay (ATPlite, 72 hours) in the 44 cell line Oncolines panel
Format: cell-based
measurement.conditions: cell line U-2 OS; read-out: cell panel IC50, U-2 OS
pIC50: −log10 of the molar value.
property.name: pIC50

// pIC50 lookup, key: N.N.[Cl][Pt][Cl] [cisplatin]
< 4.50

====

Reported %-inhibition of PDGFRα values for the following compounds.
assayed.target: panel of more than 300 wild-type and mutant kinases (313 kinase panel) (Homo sapiens)
protocol.notes: Kinase profiling in a biochemical assay panel (mobility shift assays and ELISA), %-inhibition at 1 μM; selectivity entropy
measurement.conditions: kinase PDGFRα; 1 μM
Reply with just the number (in %).

Field: example entries. Status: answers known.
compound: C[C@@H](Oc1cc(-c2cnn(C3CCNCC3)c2)cnc1N)c1c(Cl)ccc(F)c1Cl
uom: %
%-inhibition of PDGFRα: 49
--
compound: CO[C@H]1C[C@@H]2CC[C@@H](C)[C@@](O)(O2)C(=O)C(=O)N2CCCC[C@H]2C(=O)O[C@H]([C@H](C)C[C@@H]2CC[C@@H](OC(=O)C(C)(CO)CO)[C@H](OC)C2)CC(=O)[C@H](C)/C=C(\C)[C@@H](O)[C@@H](OC)C(=O)[C@H](C)C[C@H](C)/C=C/C=C/C=C/1C
uom: %
%-inhibition of PDGFRα: 3.45
--
compound: O=S(=O)(c1cccc2cnccc12)N1CCCNCC1
uom: %
%-inhibition of PDGFRα: 16

// %-inhibition of PDGFRα lookup, key: `COc1cc2c(Nc3ccc(Br)cc3F)ncnc2cc1OCC1CCN(C)CC1`
101

Next entry: `N#CC[C@H](C1CCCC1)n1cc(-c2ncnc3[nH]ccc23)cn1`
35

Next entry: COc1cc2nccc(Oc3ccc(NC(=O)C4(C(=O)Nc5ccc(F)cc5)CC4)cc3)c2cc1OC [cabozantinib]
100
